Recorded values, source patent US9796697B2.

- assay_target: HIF-2α HIS TAG-PASB Domain (Homo sapiens, UniProt Q99814)
- Construct: 100 nM HIF-2α HIS TAG-PASB Domain
- Sequence (Q99814 239-348): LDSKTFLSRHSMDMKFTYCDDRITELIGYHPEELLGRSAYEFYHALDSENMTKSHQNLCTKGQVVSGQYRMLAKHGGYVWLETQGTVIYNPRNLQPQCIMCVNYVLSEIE
- protocol_details: HIF-2α Scintillation Proximity Assay (SPA)
- Format: binding
- condition_details: displacement of tritiated probe N-(3-Chlorophenyl-4,6-t2)-4-nitrobenzo[c][1,2,5]oxadiazol-5-amine from HIF-2α PASB domain
pEC50: −log10 of the molar value.
measurement_name: pEC50

C=C1CC2(O)c3c(ccc(Oc4cncc(F)c4)c31)S(=O)(=O)C2(F)F (stereo not drawn)
6.00 to 6.60

Lookup: Please give measured pEC50 of the following entry: N#Cc1cc(F)cc(Oc2ccc3c4c2C(F)CC4(O)CS3(=O)=O)c1 (stereo not drawn)
Found: < 6.00

Lookup: Please give measured pEC50 of the following entry: N#Cc1cc(F)cc(Oc2ccc3c4c2C(F)CC4(F)CS3(=O)=O)c1 (stereo not drawn)
Found: < 6.00

----------
- assay_target: HIF-2α HIS TAG-PASB Domain (Homo sapiens, UniProt Q99814)
- Construct: 100 nM HIF-2α HIS TAG-PASB Domain
- protocol_details: HIF-2α Scintillation Proximity Assay (SPA)
- condition_details: displacement of tritiated probe N-(3-Chlorophenyl-4,6-t2)-4-nitrobenzo[c][1,2,5]oxadiazol-5-amine from HIF-2α PASB domain
pEC50: −log10 of the molar value.
measurement_name: pEC50

Example results:
N#Cc1cc(F)cc(Oc2ccc3c4c2CCC4C(F)(F)S3(=O)=O)c1 (centres unmarked)
6.60 to 7.30
N#Cc1cc(F)cc(Oc2ccc3c4c2C(F)CC4(O)C(F)(F)S3(=O)=O)c1 (centres unmarked)
> 7.30
N#Cc1cncc(Oc2ccc3c4c2C(F)CC4(O)C(F)(F)S3(=O)=O)c1 (centres unmarked)
6.60 to 7.30
N#Cc1cc(F)cc(Oc2ccc3c4c2CCC4(O)C(F)(F)S3(=O)=O)c1 (centres unmarked)
6.60 to 7.30
C=C1CC2(O)c3c(ccc(OCC(F)F)c31)S(=O)(=O)C2(F)F (centres unmarked)
< 6.00

Lookup: Please give measured pEC50 of the following entry: N#Cc1cc(F)cc(Oc2ccc3c4c2C(F)C(F)C4(O)CS3(=O)=O)c1 (centres unmarked)
Found: < 6.00

Lookup: Please give measured pEC50 of the following entry: N#Cc1cc(F)cc(Oc2ccc3c4c2C(F)C[C@@]4(O)C(F)(F)S3(=O)=O)c1 (some centres unmarked)
Found: < 6.00

----------
- assay_target: HIF-2α HIS TAG-PASB Domain (Homo sapiens, UniProt Q99814)
- Construct: 100 nM HIF-2α HIS TAG-PASB Domain
- protocol_details: HIF-2α Scintillation Proximity Assay (SPA)
- condition_details: displacement of tritiated probe N-(3-Chlorophenyl-4,6-t2)-4-nitrobenzo[c][1,2,5]oxadiazol-5-amine from HIF-2α PASB domain
pEC50: −log10 of the molar value.
measurement_name: pEC50

C=C1CC2(O)c3c(ccc(Oc4cc(F)cc(C#N)c4)c31)S(=O)(=O)C2(F)F (stereo not shown) [Compound 13]
> 7.30

Lookup: Please give measured pEC50 of the following entry: N#Cc1cc(F)cc(Oc2ccc3c4c2C(F)C(F)C4(F)CS3(=O)=O)c1 (stereo not shown) [Compound 16]
Found: < 6.00

Lookup: Please give measured pEC50 of the following entry: N#Cc1cncc(Oc2ccc3c4c2C(F)CC4(F)C(F)(F)S3(=O)=O)c1 (stereo not shown) [Compound 2]
Found: < 6.00
